- System: HIV-1 Strain B (M046I, I050V)
- procedure_summary: microbe, parasite or virus in culture
- Format: cell-based
- test_context: clinical isolate Strain B; read-out: B EC50
Binary call on EC50 with cut-off 2 nM: strictly below means label 1, and equality or higher means label 0.

compound="COC(=O)NC(C(=O)NC(Cc1ccc(-c2cc(C)nc(C3CC3)c2)cc1)C(O)CC(Cc1ccccc1F)C(=O)NC1c2cc(Cl)ccc2OCC1O)C(C)(C)C (centres unmarked)" classification="label 0"
compound=COc1ccc(-c2ccc(C[C@H](NC(=O)O[C@H]3CO[C@H]4OCC[C@H]43)[C@@H](O)C[C@@H](Cc3ccccc3F)C(=O)N[C@H]3c4cccc(Cl)c4OC[C@H]3O)cc2)cn1 classification="label 1"
compound="COC(=O)NC(C(=O)NC(Cc1ccc(-c2ccc(OC)nc2)cc1)C(O)CC(Cc1ccccc1F)C(=O)NC1c2cc(C)cc(F)c2OCC1O)C(C)(C)C (centres unmarked)" classification="label 0"
compound="COC(=O)NC(C(=O)NC(Cc1ccc(-c2ccc(N(C)C)nc2)cc1)C(O)CC(Cc1ccccc1F)C(=O)NC1c2cc(Cl)ccc2OCC1O)C(C)(C)C (centres unmarked)" classification="label 1"
compound=COC(=O)N[C@H](C(=O)N[C@@H](Cc1ccc(-c2ccc(OC)nc2)cc1)[C@@H](O)C[C@@H](Cc1cccc(F)c1)C(=O)N[C@H]1c2cc(Cl)ccc2OC[C@H]1O)C(C)(C)C classification="label 0"
compound=COC(=O)N[C@H](C(=O)N[C@@H](Cc1ccc(-c2cncc(N(C)C)n2)cc1)[C@@H](O)C[C@@H](Cc1ccccc1F)C(=O)N[C@H]1c2cc(Cl)ccc2OC[C@H]1O)C(C)(C)C classification="label 0"
compound=COC(=O)N[C@H](C(=O)N[C@@H](Cc1ccc(-c2ccc(OC)nc2)cc1)[C@@H](O)C[C@@H](Cc1ccccc1F)C(=O)N[C@H]1c2cc(C)ccc2OC[C@H]1O)C(C)(C)C classification="label 1"
compound=CNC(=O)[C@@H](NC(=O)[C@H](Cc1ccccc1F)C[C@H](O)[C@H](Cc1ccc(-c2ccc(OC)nc2)cc1)NC(=O)[C@@H](NC(=O)OC)C(C)(C)C)C(C)(C)C classification="label 0"
compound=COC(=O)N[C@H](C(=O)N[C@@H](Cc1ccc(-c2ccc(OC)nc2)cc1)[C@@H](O)C[C@@H](Cc1cccc(OC(F)(F)F)c1)C(=O)N[C@H]1[C@H](C)CCC[C@H]1O)C(C)(C)C classification="label 1"
compound="COC(=O)NC(C(=O)NC(Cc1ccc(-c2ccc(OC)nc2)cc1)C(O)CC(Cc1ccccc1F)C(=O)NC1c2cc(F)cc(C)c2OCC1O)C(C)(C)C (centres unmarked)" classification="label 0"
compound="COC(=O)NC(C(=O)NC(Cc1ccc(-c2ccc(OC)nc2)cc1)C(O)CC(Cc1cccc(Cl)c1)C(=O)NC1c2ccccc2OCC1O)C(C)(C)C (centres unmarked)" classification="label 0"

----------
- System: HIV-1 Strain A (M046I, I084V)
- procedure_summary: microbe, parasite or virus in culture
- Assay type: cell-based
- test_context: Human immunodeficiency virus 1, read-out: A EC50
recorded_endpoint: EC50 (nM)

molecule_smiles=COC(=O)N[C@H](C(=O)N[C@@H](Cc1ccc(-c2ccc(OC)nc2)cc1)[C@@H](O)C[C@@H](Cc1cccc(OC(F)(F)F)c1)C(=O)N[C@H]1c2cc(F)ccc2OC[C@H]1O)C(C)(C)C assayed_target="HIV-1 Strain A (M046I, I084V)" recorded_endpoint=EC50 endpoint_value=3
molecule_smiles=COC(=O)N[C@H](C(=O)N[C@@H](Cc1ccc(-c2ccc(OC)nc2)cc1)[C@@H](O)C[C@@H](Cc1ccccc1F)C(=O)N[C@H]1[C@H](C)CCC[C@H]1O)C(C)(C)C assayed_target="HIV-1 Strain A (M046I, I084V)" recorded_endpoint=EC50 endpoint_value=0.7
molecule_smiles=COC(=O)N[C@H](C(=O)N[C@@H](Cc1ccc(-c2cc(C)nc(C)c2)cc1)[C@@H](O)C[C@@H](Cc1cccc(Cl)c1)C(=O)N[C@H]1c2ccccc2OC[C@H]1O)C(C)(C)C assayed_target="HIV-1 Strain A (M046I, I084V)" recorded_endpoint=EC50 endpoint_value=3.9
molecule_smiles=COC(=O)N[C@H](C(=O)N[C@@H](Cc1ccc(-c2ccc(OC)nc2)cc1)[C@@H](O)C[C@@H](Cc1ccccc1F)C(=O)N[C@H]1c2ccsc2CC[C@H]1O)C(C)(C)C assayed_target="HIV-1 Strain A (M046I, I084V)" recorded_endpoint=EC50 endpoint_value=0.8
molecule_smiles=CNC(=O)[C@@H](NC(=O)[C@H](Cc1ccccc1F)C[C@H](O)[C@H](Cc1ccc(-c2ccc(N(C)C)nc2)cc1)NC(=O)[C@@H](NC(=O)OC)C(C)(C)C)C(C)(C)C assayed_target="HIV-1 Strain A (M046I, I084V)" recorded_endpoint=EC50 endpoint_value=4.8
molecule_smiles=CN(C)c1ccc(-c2ccc(C[C@H](NC(=O)[C@@H](NC(=O)C3(C#N)CC3)C(C)(C)C)[C@@H](O)C[C@@H](Cc3ccccc3F)C(=O)N[C@H]3c4cc(F)ccc4OC[C@H]3O)cc2)cn1 assayed_target="HIV-1 Strain A (M046I, I084V)" recorded_endpoint=EC50 endpoint_value=4.1
molecule_smiles=CN(C)c1ccc(-c2ccc(C[C@H](NC(=O)O[C@H]3CO[C@H]4OCC[C@H]43)[C@@H](O)C[C@@H](Cc3ccccc3F)C(=O)N[C@H]3c4cc(Cl)ccc4OC[C@H]3O)cc2)cn1 assayed_target="HIV-1 Strain A (M046I, I084V)" recorded_endpoint=EC50 endpoint_value=1.1
